Test system: human primary T-cells, IL-2 stimulated proliferation (JAK-1 and JAK-3 dependent; reported as JAK3 activity)
Assay: Human primary T-cell proliferation stimulated by IL-2 (Example 3)
Assay type: cell-based
Details: Homo sapiens, T-cell, tested under conditions described in Example 3 (IL-2 stimulated human primary T-cell proliferation); read-out: ability to inhibit JAK3 activity, IC50 range (Table V)
pIC50: −log10 of the molar value.
Below: a set of entries, each annotated with reported pIC50.

Cc1cnc(Nc2ccc3c(c2)CC(=O)N3C)nc1Nc1ccc2oc(=O)[nH]c2c1 [IV-27]
> 6.30
Cc1cnc(Nc2ccc3cnoc3c2)nc1Nc1ccc2oc(=O)[nH]c2c1 [IV-5]
> 6.30
CCN1Cc2ccc(Nc3ncc(C)c(Nc4ccc5oc(=O)[nH]c5c4)n3)cc2C1 [III-5]
> 6.30

Next item in the queue.
For COc1cc(Nc2ncc(C)c(Nc3ccc4oc(=O)[nH]c4c3)n2)cc(C(=O)N2CCN(C)CC2)c1 [Compound I-255] the compound record lists pIC50 as > 6.30

* * *

Tested on: human primary T-cells, IL-2 stimulated proliferation (JAK-1 and JAK-3 dependent; reported as JAK3 activity)
Experiment: Human primary T-cell proliferation stimulated by IL-2 (Example 3)
Format: cell-based
Settings: Homo sapiens, T-cell, tested under conditions described in Example 3 (IL-2 stimulated human primary T-cell proliferation); read-out: ability to inhibit JAK3 activity, IC50 range (Table V)
readout label: IC50

In the examples that follow, each entry is paired with its recorded IC50.
CS(=O)(=O)Nc1ccc(Nc2ncc(F)c(Nc3ccc4[nH]c(=O)[nH]c4c3)n2)cc1
500 to 5000 nM
CCCC(NC)c1cc(Nc2ncc(C)c(Nc3ccc4oc(=O)[nH]c4c3)n2)cc(C(F)(F)F)c1 (stereo not shown)
< 500 nM
Cc1cc(Nc2ncc(C)c(Nc3ccc4oc(=O)[nH]c4c3)n2)ccc1N1CC2(C)CN(C)CC(C)(C1)C2
500 to 5000 nM

Next up:
Entry under test: Cc1cnc(Nc2ccc3cnn(C)c3c2)nc1Nc1ccc2oc(=O)[nH]c2c1 . Its IC50 was < 500 nM

* * *

System: human primary T-cells, IL-2 stimulated proliferation (JAK-1 and JAK-3 dependent; reported as JAK3 activity)
Test: Human primary T-cell proliferation stimulated by IL-2 (Example 3)
Type: cell-based
Conditions: Homo sapiens, T-cell, tested under conditions described in Example 3 (IL-2 stimulated human primary T-cell proliferation); read-out: ability to inhibit JAK3 activity, IC50 range (Table V)
readout label: IC50

Guide cases for IC50, answers given:
Cc1cnc(Nc2ccc(C=O)cc2)nc1Nc1ccc2oc(=O)[nH]c2c1 [Compound I-4]
< 500 nM
Cc1cnc(Nc2cc(OCC3CCC3)cc(C(F)(F)F)c2)nc1Nc1ccc2oc(=O)[nH]c2c1 [Compound I-227]
500 to 5000 nM
C=C1C[C@@H](O)CN1c1ccc(Nc2ncc(C)c(Nc3ccc4oc(=O)[nH]c4c3)n2)cn1 [II-126]
500 to 5000 nM
Cc1cnc(Nc2cnc3onc(C)c3c2)nc1Nc1ccc2oc(=O)[nH]c2c1 [IV-43]
< 500 nM
Cc1cnc(Nc2ccc(N3CCN(C)CC3)nn2)nc1Nc1ccc2oc(=O)[nH]c2c1 [IV-3]
> 10000 nM

Record CCNC(=O)c1ccc(Nc2ncc(C)c(Nc3ccc4oc(=O)[nH]c4c3)n2)cc1 [Compound I-137] , field IC50: < 500 nM

Looking up Cc1cnc(Nc2ccc(C(=O)NC3CC3)c(C(F)(F)F)c2)nc1Nc1ccc2oc(=O)[nH]c2c1 [Compound I-223] , I see its IC50 listed as < 500 nM

The value of IC50 measured for the compound Cc1cnc(Nc2cnc(N3C[C@@H]4C[C@H]3CN4C)c(C(F)(F)F)c2)nc1Nc1ccc2oc(=O)[nH]c2c1 [II-109] turned out to be < 500 nM

* * *

Test system: human primary T-cells, IL-2 stimulated proliferation (JAK-1 and JAK-3 dependent; reported as JAK3 activity)
Test: Human primary T-cell proliferation stimulated by IL-2 (Example 3)
Assay type: cell-based
Details: Homo sapiens, T-cell, tested under conditions described in Example 3 (IL-2 stimulated human primary T-cell proliferation); read-out: ability to inhibit JAK3 activity, IC50 range (Table V)
pIC50: −log10 of the molar value. Structures can show the parent of a compound that is named as a salt.
Examples of compounds with documented pIC50 follow.

As a guide, the following entries are already answered.
CCc1cccc(Nc2ncc(C)c(Nc3ccc4oc(=O)[nH]c4c3)n2)c1 [Compound I-503]
> 6.30
Cc1cnc(Nc2ccc3[nH]c(=O)[nH]c3c2)nc1Nc1ccc2oc(=O)[nH]c2c1 [IV-29]
> 6.30

Input COCCN1C(=O)COc2cc(Nc3ncc(C)c(Nc4ccc5oc(=O)[nH]c5c4)n3)ccc21 [IV-44] . Output pIC50: > 6.30

Lab note: Cc1cnc(Nc2cc(C(C)NC(C)C)cc(C(F)(F)F)c2)nc1Nc1ccc2oc(=O)[nH]c2c1 (centres unmarked) [Compound I-473] gave pIC50 of > 6.30

Given item COCCOc1ccc(Nc2ncc(C)c(Nc3ccc4oc(=O)[nH]c4c3)n2)cc1C(F)(F)F [Compound I-165] , the value recorded as its pIC50 is > 6.30

Form: compound = CCN1CCN(c2ncc(Nc3ncc(C)c(Nc4ccc5oc(=O)[nH]c5c4)n3)cc2F)CC1 [II-114] ; pIC50 = > 6.30

// pIC50 lookup, compound = Cc1cnc(Nc2ccc(N3CCNC(C)C3)nc2)nc1Nc1ccc2oc(=O)[nH]c2c1 (centres unmarked) [II-12] , result: > 6.30

Lab note: Cc1cnc(Nc2ccc(N3CC4CN(C)CC4C3)nc2)nc1Nc1ccc2oc(=O)[nH]c2c1 (centres unmarked) [II-120] gave pIC50 of > 6.30

Quick note, pIC50 for COc1ccc(Nc2ncc(C)c(Nc3ccc4oc(=O)[nH]c4c3)n2)cc1C(=O)N1CCN(C)CC1 [Compound I-263] landed at > 6.30

The reported pIC50 of the compound COc1c(F)ccc(Nc2ncc(C)c(Nc3cc(F)c4oc(=O)[nH]c4c3)n2)c1F [Compound I-508] was > 6.30

Form field pIC50, entry Cc1cc(Nc2ncc(C)c(Nc3ccc4oc(=O)[nH]c4c3)n2)ccc1-c1cccnc1 [Compound I-483, formate salt] : > 6.30

// field: pIC50; key: COc1cc(Nc2ncc(C)c(Nc3ccc4oc(=O)[nH]c4c3)n2)cc(C(C)N2CCCC2)c1 (centres unmarked) [Compound I-234] ; value = > 6.30

pIC50 in this record for Cc1cnc(Nc2ccc(N3CCN(C)CC3)nc2)nc1Nc1ccc2oc(=O)n(C(C)C)c2c1 [II-7] : > 6.30

Value of pIC50 reported for the compound Cc1cnc(Nc2ccc3c(c2)NC(=O)CCC3)nc1Nc1ccc2oc(=O)[nH]c2c1 [IV-23] is > 6.30

Sample CCN(CC)C1CCN(C(C)c2ccc(Nc3ncc(C)c(Nc4ccc5oc(=O)[nH]c5c4)n3)cc2)C1 (centres unmarked) [Compound I-205] ; pIC50 observed: > 6.30

* * *

Tested on: human primary T-cells, IL-2 stimulated proliferation (JAK-1 and JAK-3 dependent; reported as JAK3 activity)
Assay: Human primary T-cell proliferation stimulated by IL-2 (Example 3)
Format: cell-based
Settings: Homo sapiens, T-cell, tested under conditions described in Example 3 (IL-2 stimulated human primary T-cell proliferation); read-out: ability to inhibit JAK3 activity, IC50 range (Table V)
pIC50: −log10 of the molar value. Counter-ions that a name gives are not always drawn.
// pIC50 lookup, one value per entry

Some molecules with known pIC50 results, for comparison:
Cc1cnc(Nc2cccc(S(=O)(=O)C3CCCC3)c2)nc1Nc1ccc2oc(=O)[nH]c2c1
> 6.30
COc1cncc(Nc2ncc(C)c(Nc3ccc4oc(=O)[nH]c4c3)n2)c1
< 5.00
CC(=O)N1Cc2ccc(Nc3ncc(C)c(Nc4ccc5oc(=O)[nH]c5c4)n3)cc2C1
> 6.30
Cc1cnc(Nc2ccc3ccncc3c2)nc1Nc1ccc2oc(=O)[nH]c2c1
< 5.00
Cc1cnc(Nc2ccc(N3CCN(C(C)C)CC3)nc2)nc1Nc1ccc2oc(=O)[nH]c2c1
> 6.30

Consider CCCNC(C)c1cccc(Nc2ncc(C)c(Nc3ccc4oc(=O)[nH]c4c3)n2)c1 (centres unmarked) . Its measured pIC50 is > 6.30

Quick note, pIC50 for Cc1cnc(Nc2ccc(C(=O)NC3CCC3)cc2)nc1Nc1ccc2oc(=O)[nH]c2c1 [Compound I-138, formic acid salt] landed at > 6.30

* * *

Measured IC50 by item
System: human primary T-cells, IL-2 stimulated proliferation (JAK-1 and JAK-3 dependent; reported as JAK3 activity)
Assay: Human primary T-cell proliferation stimulated by IL-2 (Example 3)
Format: cell-based
Conditions: Homo sapiens, T-cell, tested under conditions described in Example 3 (IL-2 stimulated human primary T-cell proliferation); read-out: ability to inhibit JAK3 activity, IC50 range (Table V)

Cc1cnc(Nc2ccc(N3CCN(CC4CC4)[C@H](C)C3)nc2)nc1Nc1ccc2oc(=O)[nH]c2c1
< 500 nM
Cc1cnc(Nc2ccc(S(C)(=O)=O)nc2)nc1Nc1ccc2oc(=O)[nH]c2c1
< 500 nM
Cc1cnc(Nc2cccc(C(F)(F)F)c2C)nc1Nc1ccc2oc(=O)[nH]c2c1
< 500 nM
Cc1cnc(Nc2ccc(N3CCN(C(=O)C(F)(F)F)[C@H](C)C3)nc2)nc1Nc1ccc2oc(=O)[nH]c2c1
< 500 nM

In plain terms, Cc1cnc(Nc2ccc(OC(C)C)nc2)nc1Nc1ccc2oc(=O)[nH]c2c1 has a documented IC50 of < 500 nM

response.value for COc1cc(Nc2ncc(F)c(Nc3ccc4oc(=O)[nH]c4c3)n2)cc(OC)c1OC (field: IC50) = < 500 nM

Summary for this molecule, Cc1cnc(Nc2ccc(C(=O)Nc3ccccc3)c(C(F)(F)F)c2)nc1Nc1ccc2oc(=O)[nH]c2c1 : IC50 is < 500 nM

Briefly, IC50 measured for Cc1cnc(Nc2ccc(N3CCOCC3)nc2)nc1Nc1cc(F)c2oc(=O)[nH]c2c1 : < 500 nM

// recorded IC50 for COc1c(F)ccc(Nc2ncc(C)c(Nc3cc(C)c4oc(=O)[nH]c4c3)n2)c1F : < 500 nM

Per the record, Cc1cnc(Nc2cccc(C(N)=O)c2)nc1Nc1ccc2oc(=O)[nH]c2c1 has IC50 of < 500 nM

Reported IC50 of COC(=O)N1CCN(c2ccc(Nc3ncc(C)c(Nc4ccc5oc(=O)[nH]c5c4)n3)cn2)CC1 : < 500 nM

The molecule listed as CNC(=O)c1ccc(Nc2ncc(C)c(Nc3ccc4oc(=O)[nH]c4c3)n2)cc1 has a reported IC50 of < 500 nM
